Reference source: patent US10584128B2

I'd be grateful if you could share measured pKi for these entries.
pKi: −log10 of the molar value.

pKi for Rho kinase 1 (Homo sapiens, UniProt Q13464) with input CC1=C(C(=O)Nc2ccc3cnccc3c2)C(c2ccc(C(F)(F)F)c(F)c2)n2nc(C(=O)NCCN3CCCCC3)nc2N1 (single isomer, unassigned) [Example 129b] equals > 7.30

Item CCOC(=O)c1cc2n(n1)C(c1cccc(OC)c1)C(C(=O)Nc1ccc3[nH]ncc3c1)=C(C)N2 (stereo not drawn) was tested on Rho kinase 1 (Homo sapiens, UniProt Q13464); the reported pKi is 6.30 to 7.30

Record CC1=C(C(=O)Nc2ccc3[nH]ncc3c2)C(c2ccc(C(F)(F)F)cc2)n2nnnc2N1 (single isomer, unassigned) [Example 27B] has Rho kinase 1 (Homo sapiens, UniProt Q13464) pKi equal to 6.30 to 7.30

Reading of pKi for CC1=C(C(=O)Nc2ccc3cnccc3c2)C(c2ccc(C(F)(F)F)c(F)c2)n2nc(C(=O)NCCN3CCCCC3)nc2N1 (stereo not drawn) [Example 129] with Rho kinase 1 (Homo sapiens, UniProt Q13464): > 7.30

The reported pKi value, Rho kinase 1 (Homo sapiens, UniProt Q13464), for CC1=C(C(=O)Nc2ccc3[nH]ncc3c2)C(c2ccc(Cl)nc2)n2nc(C(F)(F)F)cc2N1 (single isomer, unassigned) [Example 32A] reads < 6.30

Response field pKi (Rho kinase 1 (Homo sapiens, UniProt Q13464)) for item CC1=C(C(=O)Nc2ccc3cnccc3c2)C(c2ccc(C(F)(F)F)c(F)c2)n2nc(C(=O)N(C)CCN3CCCCC3)cc2N1 (single isomer, unassigned) [Example 78B] : > 7.30
